Data provenance: ChEMBL document CHEMBL3885861

Organism: Rattus norvegicus
Assay: Open TG-GATES - Regimen: Daily Repeat
Assay type: toxicity, organism-based, Sprague-Dawley
Parameters: regimen Daily Repeat, gender Male, age 6 weeks
Conditions: in vivo, po, 0 mg/kg, 72 h, tissue Blood, route gavage, dose level Control, time 3 day
# Lookup of reported MCH keyed by entry
// return numeric value only (unit: pg, not printed)

[ask] # input compound: O=C(O)c1ccccc1Nc1ccccc1 ; wanted: its MCH
[reply] 20.9

[ask] Follow-up entry: CN(CCOc1ccc(CC2SC(=O)NC2=O)cc1)c1ccccn1.O=C(O)/C=C\C(=O)O (stereo unspecified) [ROSIGLITAZONE MALEATE]
[reply] 21.1

---
[ask] For CC(S)C(=O)NCC(=O)O (stereo unspecified) , what is its reported MCH?
[reply] 20.9
